From: patent US20240182536A1

# Target Desc: T1, IL-18 receptor (IL-18Rα and IL-18Rβ) (UniProt Q13478 19-541; O95256 20-599, limits assumed)
# T1 sequence (looked up) 1: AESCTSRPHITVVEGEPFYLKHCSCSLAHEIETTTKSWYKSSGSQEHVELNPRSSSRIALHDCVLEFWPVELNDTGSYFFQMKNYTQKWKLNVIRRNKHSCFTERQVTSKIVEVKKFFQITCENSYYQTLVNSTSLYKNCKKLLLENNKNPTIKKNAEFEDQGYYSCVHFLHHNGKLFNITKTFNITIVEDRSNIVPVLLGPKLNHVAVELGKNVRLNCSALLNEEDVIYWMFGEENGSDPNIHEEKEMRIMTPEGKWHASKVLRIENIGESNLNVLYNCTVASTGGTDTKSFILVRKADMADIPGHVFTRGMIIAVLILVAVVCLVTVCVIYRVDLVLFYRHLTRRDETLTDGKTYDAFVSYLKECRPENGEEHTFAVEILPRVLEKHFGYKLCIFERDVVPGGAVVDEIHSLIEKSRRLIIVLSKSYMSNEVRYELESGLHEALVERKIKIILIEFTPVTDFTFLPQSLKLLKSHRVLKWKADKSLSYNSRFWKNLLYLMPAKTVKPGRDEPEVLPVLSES
# T1 sequence (looked up) 2: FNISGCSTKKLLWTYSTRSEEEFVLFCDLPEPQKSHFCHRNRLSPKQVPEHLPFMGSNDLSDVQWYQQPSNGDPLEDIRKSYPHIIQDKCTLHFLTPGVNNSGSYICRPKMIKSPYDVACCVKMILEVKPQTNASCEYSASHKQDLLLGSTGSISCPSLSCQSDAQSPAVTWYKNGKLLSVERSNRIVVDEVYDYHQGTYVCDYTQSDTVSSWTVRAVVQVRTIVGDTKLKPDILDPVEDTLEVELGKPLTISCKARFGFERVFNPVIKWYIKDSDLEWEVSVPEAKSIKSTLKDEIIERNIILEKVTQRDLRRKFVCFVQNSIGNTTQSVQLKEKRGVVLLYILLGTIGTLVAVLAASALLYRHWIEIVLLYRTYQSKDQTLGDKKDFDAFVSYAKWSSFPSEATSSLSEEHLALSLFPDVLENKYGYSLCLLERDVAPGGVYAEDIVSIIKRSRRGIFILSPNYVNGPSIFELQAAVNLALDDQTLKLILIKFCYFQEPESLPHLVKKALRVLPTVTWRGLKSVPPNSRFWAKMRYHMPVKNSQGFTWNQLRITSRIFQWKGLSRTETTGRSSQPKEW
# Experiment Summary: cell-based or functional assay
binders and their reported PBMC IFN gamma EC50 relative to WT-IL18, run 1
Recorded Endpoint: PBMC IFN gamma EC50 relative to WT-IL18, run 1

* hIL18 (G3T, K53A, M60K) - KiH (Fc fusion) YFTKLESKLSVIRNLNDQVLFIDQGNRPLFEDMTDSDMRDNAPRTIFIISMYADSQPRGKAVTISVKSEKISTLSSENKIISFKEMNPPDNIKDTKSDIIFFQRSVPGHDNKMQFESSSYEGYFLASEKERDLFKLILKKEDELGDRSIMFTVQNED | 0.87
* hIL18 (G3V, E6K, K53A, M60K)- KiH (Fc fusion) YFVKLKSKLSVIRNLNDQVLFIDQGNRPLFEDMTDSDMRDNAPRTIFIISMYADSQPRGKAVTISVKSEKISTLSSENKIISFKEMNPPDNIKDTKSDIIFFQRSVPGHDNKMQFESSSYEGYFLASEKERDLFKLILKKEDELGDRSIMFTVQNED | 0.04
* hIL18 (G3V, K53S, M60K) - KiH (Fc fusion) YFVKLESKLSVIRNLNDQVLFIDQGNRPLFEDMTDSDMRDNAPRTIFIISMYSDSQPRGKAVTISVKSEKISTLSSENKIISFKEMNPPDNIKDTKSDIIFFQRSVPGHDNKMQFESSSYEGYFLASEKERDLFKLILKKEDELGDRSIMFTVQNED | 2.45
